Below, each of the compounds is paired with its reported pKi value.
Target: Carbonic anhydrase 9 (Homo sapiens, UniProt Q16790)
Assay: Inhibition of human recombinant CA9 by phenol red dye based stopped flow CO2 hydration assay
pKi: −log10 of the molar value.
reported-property: pKi

NS(=O)(=O)c1ccc(CCNC(=O)c2ccc3c(c2)no[n+]3[O-])cc1 = 7.90
O=C(Oc1ccc2ccc(=O)oc2c1)c1ccc2c(c1)no[n+]2[O-] = 6.52
O=C(O)c1ccc2c(c1)no[n+]2[O-] = 5.58
NS(=O)(=O)c1ccc(CCN(CCc2ccccc2)C(=O)c2ccc3c(c2)no[n+]3[O-])cc1 = 7.83
O=C(OCCCOc1ccc2oc(=O)ccc2c1)c1ccc2c(c1)no[n+]2[O-] = 7.31
O=C(OCCOc1ccc2ccc(=O)oc2c1)c1ccc2c(c1)no[n+]2[O-] = 6.95

====

Below, each of the molecules is paired with its reported pKi value.
Molecular target: UniProtKB P00918
Test: Inhibition of human recombinant CA2 by phenol red dye based stopped flow CO2 hydration assay
pKi: −log10 of the molar value.
reported-property: pKi

O=C(O)c1ccc2c(c1)no[n+]2[O-] = 5.06
NS(=O)(=O)c1ccc(CCNC(=O)c2ccc3c(c2)no[n+]3[O-])cc1 = 7.05

====

Molecular target: Carbonic anhydrase 9 (Homo sapiens, UniProt Q16790)
Assay: Inhibition of human recombinant CA9 by phenol red dye based stopped flow CO2 hydration assay
pKi: −log10 of the molar value.
Below, each of the compounds is paired with its reported pKi value.
reported-property: pKi

N#CCCN(CCc1ccc(S(N)(=O)=O)cc1)C(=O)c1ccc2c(c1)no[n+]2[O-] = 7.69
NS(=O)(=O)c1ccc(CCN(Cc2ccco2)C(=O)c2ccc3c(c2)no[n+]3[O-])cc1 = 7.64
NS(=O)(=O)c1ccc(OC(=O)c2ccc3c(c2)no[n+]3[O-])cc1 = 7.41
NS(=O)(=O)c1ccc(NC(=O)c2ccc3c(c2)no[n+]3[O-])cc1 = 7.16
NS(=O)(=O)c1ccc(CNC(=O)c2ccc3c(c2)no[n+]3[O-])cc1 = 7.42
NS(=O)(=O)c1ccc(CCN(Cc2ccccc2)C(=O)c2ccc3c(c2)no[n+]3[O-])cc1 = 7.98
NS(=O)(=O)c1cccc(NC(=O)c2ccc3c(c2)no[n+]3[O-])c1 = 7.38
NS(=O)(=O)c1ccc(O)c(NC(=O)c2ccc3c(c2)no[n+]3[O-])c1 = 7.21
O=C(NCCOc1ccc2oc(=O)ccc2c1)c1ccc2c(c1)no[n+]2[O-] = 7.63
O=C(Oc1ccc2oc(=O)ccc2c1)c1ccc2c(c1)no[n+]2[O-] = 7.80

====

Target: Carbonic anhydrase 1 (Homo sapiens)
Sequence (P00915 whole entry): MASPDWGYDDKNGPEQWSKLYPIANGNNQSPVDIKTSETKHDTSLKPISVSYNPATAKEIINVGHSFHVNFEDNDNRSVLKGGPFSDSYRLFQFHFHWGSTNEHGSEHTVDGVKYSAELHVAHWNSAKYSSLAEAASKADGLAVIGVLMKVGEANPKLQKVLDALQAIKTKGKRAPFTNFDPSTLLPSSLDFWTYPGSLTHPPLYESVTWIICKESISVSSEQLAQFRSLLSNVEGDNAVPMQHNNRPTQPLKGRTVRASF
Assay: Inhibition of human recombinant CA1 by phenol red dye based stopped flow CO2 hydration assay
reported-property: Ki (nM)

NS(=O)(=O)c1ccc(CCN(CCc2ccccc2)C(=O)c2ccc3c(c2)no[n+]3[O-])cc1 = 831
NS(=O)(=O)c1ccc(CCN(Cc2ccco2)C(=O)c2ccc3c(c2)no[n+]3[O-])cc1 = 602
NS(=O)(=O)c1ccc(OC(=O)c2ccc3c(c2)no[n+]3[O-])cc1 = 736
NS(=O)(=O)c1cccc(NC(=O)c2ccc3c(c2)no[n+]3[O-])c1 = 7660
NS(=O)(=O)c1ccc(O)c(NC(=O)c2ccc3c(c2)no[n+]3[O-])c1 = 8450
NS(=O)(=O)c1ccc(CNC(=O)c2ccc3c(c2)no[n+]3[O-])cc1 = 83.1
NS(=O)(=O)c1ccc(NC(=O)c2ccc3c(c2)no[n+]3[O-])cc1 = 792
NS(=O)(=O)c1ccc(CCN(Cc2ccccc2)C(=O)c2ccc3c(c2)no[n+]3[O-])cc1 = 618
NS(=O)(=O)c1ccc(CCNC(=O)c2ccc3c(c2)no[n+]3[O-])cc1 = 445
